Catalogue of activity at 0.5 h, 100 µM values
target entity: CYP3A4 (Homo sapiens)
Sequence (P08684 whole entry): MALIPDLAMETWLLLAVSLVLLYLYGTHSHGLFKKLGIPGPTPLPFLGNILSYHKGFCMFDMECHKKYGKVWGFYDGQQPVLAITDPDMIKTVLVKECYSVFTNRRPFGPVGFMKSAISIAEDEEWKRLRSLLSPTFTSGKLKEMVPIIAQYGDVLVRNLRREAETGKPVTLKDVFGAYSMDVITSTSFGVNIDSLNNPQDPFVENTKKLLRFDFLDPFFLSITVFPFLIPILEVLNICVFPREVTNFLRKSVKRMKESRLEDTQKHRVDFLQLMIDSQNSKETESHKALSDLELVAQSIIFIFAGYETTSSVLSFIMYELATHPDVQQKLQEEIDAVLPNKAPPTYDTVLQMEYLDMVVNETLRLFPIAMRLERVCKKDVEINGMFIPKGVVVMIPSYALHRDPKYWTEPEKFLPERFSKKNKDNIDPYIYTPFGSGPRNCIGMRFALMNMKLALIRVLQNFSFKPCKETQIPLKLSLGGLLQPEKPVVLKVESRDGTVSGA
experimental protocol: Mechanism based inhibition of CYP3A4 in human liver microsomes assessed as remaining percentage at 100 uM in presence of substrate incubated for 30 mins relative to control
Type: ADME
assay setup: read-out: Activity
Express your answer in %, writing the number without its unit.

Guide cases for activity at 0.5 h, 100 µM, answers given:
>>> print(df.to_string())
                                item_smiles          quantity_measured  readout_value
0  CC(=O)N1CC2(CC(NC(=O)c3cc(-c4ccc(F)cc4)no3)C2)C1  activity at 0.5 h, 100 µM             98
1  CC(=O)N1CC2(CC(NC(=O)c3cc(-c4ccccc4)no3)C2)C1  activity at 0.5 h, 100 µM             94

Let's switch to this molecule now.
Q) Look up activity at 0.5 h, 100 µM: CN(C)C(=O)CCNC(=O)c1cc(-c2ccc(F)cc2)no1
A) 97
